Tested on: Staphylococcus aureus
test method notes: In vitro activity (MIC/MBC), Staphylococcus aureus
Type: cell-based
measurement conditions: MBC, read-out: Minimum Inhibitory Concentration (MBC)
Where a name gives a salt, the structure may show the parent alone.
recorded endpoint: MBC (µg/mL)

CC1(C)S[C@@H]2[C@H](NC(=O)[C@H](NC3CCCS3)c3ccc(O)cc3)C(=O)N2[C@H]1C(=O)O (relative stereo) [Compound III, sodium salt]	0.138
CCC1CC(F)C(N(C2OC(CC)CC2F)[C@@H](C(=O)N[C@@H]2C(=O)N3[C@@H]2SC(C)(C)[C@@H]3C(=O)O)c2ccc(O)cc2)O1 (relative stereo) [Compound IV, sodium salt]	0.055
CC1(C)S[C@@H]2[C@H](NC(=O)[C@@H](c3ccc(O)cc3)N(C3CCCCO3)C3CCCCO3)C(=O)N2[C@H]1C(=O)O (relative stereo) [Compound II, sodium salt]	0.098
CC1(C)S[C@@H]2[C@H](NC(=O)[C@H](NC3CCCO3)c3ccc(O)cc3)C(=O)N2[C@H]1C(=O)O (relative stereo) [Compound I, sodium salt]	0.177
